- Measured target: C-Raf (Homo sapiens (Human))
- Procedure text: Raf kinase assay (C-Raf), [33P] incorporation into MEK1(K97R)
- Format: biochemical
Property measured: IC50 (nM)
The figure you give is taken to be in nM; do not add the unit.

INSERT INTO results (compound, property_measured, number) VALUES
  ('COc1cc(-c2ccc3ncnc(Nc4cccc(O)c4)c3c2)ccc1O [Compound 8]', 'IC50', 255),
  ('COc1ccc(-c2ccc3ncnc(Nc4cccc5[nH]ncc45)c3c2)cc1F [Compound 75]', 'IC50', 672);

Challenge: Consider the compound COc1cc(-c2ccc3ncnc(Nc4ccc5nc[nH]c5c4)c3c2)ccc1O [Compound 54] and give its measured IC50.
Response given: 2570

Challenge: Here is the next compound: COc1cc(-c2ccc3ncnc(Nc4cccc5[nH]nc(Cl)c45)c3c2)ccc1O [Compound 126]
Response given: 287

Challenge: Here is the next compound: OCc1cccc(-c2ccc3ncnc(Nc4cccc5[nH]ncc45)c3c2)c1 [Compound 94]
Response given: 1410

----------
Listed here: items and their measured log10 of IC50.
- Measured target: B-Raf (Homo sapiens (Human))
- Sequence (P15056 whole entry): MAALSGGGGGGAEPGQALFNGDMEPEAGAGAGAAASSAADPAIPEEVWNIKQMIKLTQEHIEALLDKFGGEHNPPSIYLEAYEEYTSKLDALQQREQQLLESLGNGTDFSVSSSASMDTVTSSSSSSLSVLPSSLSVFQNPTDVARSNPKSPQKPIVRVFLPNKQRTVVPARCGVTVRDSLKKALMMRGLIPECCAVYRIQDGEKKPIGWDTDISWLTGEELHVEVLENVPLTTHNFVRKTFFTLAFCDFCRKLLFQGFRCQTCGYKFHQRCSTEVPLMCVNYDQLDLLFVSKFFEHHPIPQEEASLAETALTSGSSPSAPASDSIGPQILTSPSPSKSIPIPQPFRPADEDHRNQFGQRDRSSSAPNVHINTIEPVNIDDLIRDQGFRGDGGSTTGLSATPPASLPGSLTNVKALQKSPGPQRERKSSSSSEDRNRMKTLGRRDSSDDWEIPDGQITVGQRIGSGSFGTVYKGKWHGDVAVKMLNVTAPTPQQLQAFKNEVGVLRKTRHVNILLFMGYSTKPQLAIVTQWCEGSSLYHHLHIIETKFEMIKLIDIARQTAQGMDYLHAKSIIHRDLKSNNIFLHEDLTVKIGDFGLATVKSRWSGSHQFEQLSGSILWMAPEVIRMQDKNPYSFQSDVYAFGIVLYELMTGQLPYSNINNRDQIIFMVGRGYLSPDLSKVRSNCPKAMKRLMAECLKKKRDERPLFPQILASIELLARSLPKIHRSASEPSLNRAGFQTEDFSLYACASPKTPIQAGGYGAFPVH
- Procedure text: Raf kinase assay (B-Raf), [33P] incorporation into MEK1(K97R)
- Assay type: biochemical
In our notation, the value equals log10 of IC50 in nM.

INSERT INTO measurements (smiles_record, property_measured, number) VALUES
  ('COc1cc(-c2ccc3nccc(Nc4cc(O)ccc4F)c3c2)ccc1O', 'log10 of IC50', 1.26);

Challenge: Record Fc1cccc(-c2ccc3ncnc(Nc4cccc5[nH]ncc45)c3c2)c1 : what is its log10 of IC50 with B-Raf (Homo sapiens (Human))?
Response given: 2.39

Challenge: Here is the next molecule: N#Cc1ccc(-c2ccc3ncnc(Nc4cccc5[nH]ncc45)c3c2)cc1
Response given: 2.40

Challenge: Here is the next molecule: COc1cc(-c2ccc3ncnc(Nc4cccc(NC(C)=O)c4)c3c2)ccc1O
Response given: 2.69

Challenge: Here is the next molecule: CCS(=O)(=O)Nc1ccc(-c2ccc3ncnc(Nc4ccccc4)c3c2)cc1
Response given: 3.23

Challenge: Here is the next molecule: Fc1ccccc1-c1ccc2nccc(Nc3cccc4[nH]ncc34)c2c1
Response given: 2.45

Challenge: Here is the next molecule: COc1cc(-c2ccc3ncnc(Nc4ccc(F)c(Cl)c4)c3c2)ccc1O
Response given: 3.00

Challenge: Here is the next molecule: COc1cccc(-c2ccc3ncnc(Nc4cccc5[nH]ncc45)c3c2)c1OC
Response given: 2.58

Challenge: Here is the next molecule: Oc1cccc(Nc2ncnc3ccc(-c4cccc(O)c4)cc23)c1
Response given: 1.44

Challenge: Here is the next molecule: Oc1ccc(-c2ccc3nccc(Nc4cccc5[nH]ncc45)c3c2)cc1
Response given: 2.27

Challenge: Here is the next molecule: COc1cc(-c2ccc3ncnc(Nc4ccccc4)c3c2)ccc1O
Response given: 2.95

Challenge: Here is the next molecule: CS(=O)(=O)Nc1cccc(-c2ccc3ncnc(Nc4cccc(O)c4)c3c2)c1
Response given: 1.87

----------
- Measured target: C-Raf (Homo sapiens (Human), UniProt P04049)
- Sequence (P04049 whole entry): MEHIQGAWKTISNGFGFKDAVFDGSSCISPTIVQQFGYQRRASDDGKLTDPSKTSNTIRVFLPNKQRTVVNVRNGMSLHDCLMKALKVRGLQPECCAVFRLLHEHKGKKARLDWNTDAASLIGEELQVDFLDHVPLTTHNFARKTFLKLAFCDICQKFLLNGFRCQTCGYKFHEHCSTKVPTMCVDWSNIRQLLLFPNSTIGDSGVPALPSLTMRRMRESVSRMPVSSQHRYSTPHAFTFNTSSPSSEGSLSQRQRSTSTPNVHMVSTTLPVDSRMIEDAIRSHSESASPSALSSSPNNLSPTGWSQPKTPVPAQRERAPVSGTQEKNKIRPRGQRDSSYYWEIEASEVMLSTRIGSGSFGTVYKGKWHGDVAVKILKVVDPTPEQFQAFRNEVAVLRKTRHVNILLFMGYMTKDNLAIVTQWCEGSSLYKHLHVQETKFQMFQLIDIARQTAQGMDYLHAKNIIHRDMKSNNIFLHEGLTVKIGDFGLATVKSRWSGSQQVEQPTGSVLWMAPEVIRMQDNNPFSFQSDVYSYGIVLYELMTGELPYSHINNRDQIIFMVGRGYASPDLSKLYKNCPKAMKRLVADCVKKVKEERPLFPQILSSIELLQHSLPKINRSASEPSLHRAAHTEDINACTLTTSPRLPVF
- Procedure text: Raf kinase assay (C-Raf), [33P] incorporation into MEK1(K97R)
- Assay type: biochemical
We label by threshold. Values of IC50 strictly beneath 1000 nM are true. Values of 1000 nM and up are false.

INSERT INTO assay_data (smiles_record, assigned_label) VALUES
  ('N#Cc1cccc(-c2ccc3ncnc(Nc4cccc5[nH]ncc45)c3c2)c1', 'true'),
  ('Nc1ccc(-c2ccc3ncnc(Nc4cccc5[nH]ncc45)c3c2)cc1', 'true'),
  ('COc1cc(-c2ccc3ncnc(Nc4cccc(N)c4)c3c2)ccc1O', 'false');

Challenge: Below 1000 nM on IC50? Entry Oc1ccc(-c2ccc3ncnc(Nc4ccccc4)c3c2)cc1
Response given: false

Challenge: Here is the next compound: Oc1cccc(Nc2ncnc3ccc(-c4cccc(O)c4)cc23)c1
Response given: true

Challenge: Here is the next compound: COc1ccc(-c2ccc3ncnc(Oc4cccc(O)c4)c3c2)cc1
Response given: false

Challenge: Here is the next compound: COc1ccc(-c2ccc3ncnc(Nc4cccc(O)c4)c3c2)cc1
Response given: false

Challenge: Here is the next compound: N#Cc1ccc(-c2ccc3ncnc(Nc4cccc5[nH]ncc45)c3c2)cc1
Response given: true

Challenge: Here is the next compound: Nc1ccc(F)c(-c2ccc3nccc(Nc4cccc5[nH]ncc45)c3c2)c1
Response given: false
